Every entry's value here was drawn from ChEMBL document CHEMBL1125643.

Assay: Drug related lethality is percent animals in treated groups dying prior to first tumor related death in untreated groups measured in BDF1 mice after ip administration at 6.25 mg/kg dose
Format: toxicity, organism-based
Parameters: dose 6.25 mg/kg, route intraperitoneal
Settings: BDF1, mus sp., in vivo, read-out: Lethality
endpoint_name: mortality (%)
Answer in %, number only, no unit symbol.

Return mortality for the following compound: N=C(N)Nc1nc(C(=O)Nc2nc3cc(F)ccc3s2)cs1
0

----------
Test: Drug related lethality is percent animals in treated groups dying prior to first tumor related death in untreated groups measured in BDF1 mice after ip administration at 100 mg/kg dose 2-4 days after tumor challenge
Type: toxicity, organism-based
Parameters: dose 100 mg/kg, route intraperitoneal
Conditions: BDF1, mus sp., in vivo, read-out: Lethality
endpoint_name: mortality (%)
Answer in %, number only, no unit symbol.

Return mortality for the following compound: O=c1[nH]cc(F)c(=O)[nH]1 [FLUOROURACIL]
0

----------
Assay: Drug related lethality is percent animals in treated groups dying prior to first tumor related death in untreated groups measured in BDF1 mice after ip administration at 25 mg/kg dose
Format: toxicity, organism-based
Set-up: dose 25 mg/kg, route intraperitoneal
Conditions: BDF1, mus sp., in vivo, read-out: Lethality
endpoint_name: mortality (%)
Answer in %, number only, no unit symbol.

Return mortality for the following compound: N=C(N)Nc1nc(C(=O)Nc2nc3cc(F)ccc3s2)cs1
0

----------
Experiment: Drug related lethality is percent animals in treated groups dying prior to first tumor related death in untreated groups measured in BDF1 mice after ip administration at 16 mg/kg dose days 3,7,11 after tumor challenge
Type: toxicity, organism-based
Parameters: dose 16 mg/kg, route intraperitoneal
Details: BDF1, mus sp., in vivo, read-out: Lethality
endpoint_name: mortality
Just so you know, I need the unit written after the number.

Return mortality for the following compound: COc1cc([C@@H]2c3cc4c(cc3[C@@H](O[C@@H]3O[C@@H]5CO[C@@H](C)O[C@H]5[C@H](O)[C@H]3O)[C@H]3COC(=O)[C@H]23)OCO4)cc(OC)c1O [ETOPOSIDE]
0%

----------
Assay: Drug related lethality is percent animals in treated groups dying prior to first tumor related death in untreated groups measured in BDF1 mice after po administration at 400 mg/kg dose
Type: toxicity, organism-based
Parameters: dose 400 mg/kg, route oral
Details: BDF1, mus sp., in vivo, read-out: Lethality
endpoint_name: mortality (%)
Answer in %, number only, no unit symbol.

Return mortality for the following compound: N=C(N)Nc1nc(C(=O)Nc2nc3cc(F)ccc3s2)cs1
45.7

----------
Test: Drug related lethality is percent animals in treated groups dying prior to first tumor related death in untreated groups measured in BDF1 mice after ip administration at 50 mg/kg dose
Type: toxicity, organism-based
Design: dose 50 mg/kg, route intraperitoneal
Conditions: BDF1, mus sp., in vivo, read-out: Lethality
endpoint_name: mortality (%)
Answer in %, number only, no unit symbol.

Return mortality for the following compound: N=C(N)Nc1nc(C(=O)Nc2nc3cc(F)ccc3s2)cs1
0.43

----------
Test: Drug related lethality is percent animals in treated groups dying prior to first tumor related death in untreated groups measured in BDF1 mice after ip administration at 300 mg/kg dose days 3 after tumor challenge
Details: BDF1, mus sp., in vivo
endpoint_name: mortality
Just so you know, I need the unit written after the number.

Return mortality for the following compound: O=P1(N(CCCl)CCCl)NCCCO1 (stereo unspecified) [CYCLOPHOSPHAMIDE ANHYDROUS]
0%
